System: LXFL 529
Test: NCI tumour cell line growth inhibition, 48 h
The source made the active and inactive calls. Cut-off read from the data, not from the text of the source: active = GI50 up to about 1.1 µM and inactive = higher.
In this section, each of the molecules is paired with its reported GI50.

Task: What GI50 appears in the records for this molecule with LXFL 529? CCSc1nc2cccc([N+](=O)[O-])c2n1CC
Output: > 100 µM (inactive)

Task: Would you kindly repeat that for CC1=NN(C(=O)CC(=O)Nc2cccc(Cl)c2)C(=O)C1/N=N/c1ccc(S(N)(=O)=O)cc1 (stereo not drawn) ?
Output: > 100 µM (inactive)

Task: Would you kindly repeat that for Cc1cnc2c(c1)C(=O)C1=C(OC(C)(C)CC1O)C2=O (stereo not drawn) ?
Output: 16.2 µM (inactive)
